Target: Proton-coupled folate transporter (Homo sapiens) (UniProt Q96NT5)
Sequence (whole entry): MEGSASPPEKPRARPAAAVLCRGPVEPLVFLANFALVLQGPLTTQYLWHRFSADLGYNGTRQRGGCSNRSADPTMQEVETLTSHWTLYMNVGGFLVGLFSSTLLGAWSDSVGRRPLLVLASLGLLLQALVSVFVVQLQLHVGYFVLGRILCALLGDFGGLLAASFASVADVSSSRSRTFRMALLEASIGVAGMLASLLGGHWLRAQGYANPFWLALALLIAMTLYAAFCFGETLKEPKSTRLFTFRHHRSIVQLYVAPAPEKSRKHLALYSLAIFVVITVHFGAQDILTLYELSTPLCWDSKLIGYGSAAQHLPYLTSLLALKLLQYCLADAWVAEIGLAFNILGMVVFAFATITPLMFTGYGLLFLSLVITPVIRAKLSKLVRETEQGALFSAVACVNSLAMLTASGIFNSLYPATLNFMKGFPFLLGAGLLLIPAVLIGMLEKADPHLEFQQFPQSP
Assay: Inhibition of human PCFT expressed in Chinese hamster R2/PCFT4 cells assessed as reduction in [3H]MTX uptake at pH 5.5 at 1 uM measured over 2 mins relative to control
Assay type: cell-based
Kindly supply the reported inhibition values for the records listed here.

Recorded results for 2 compounds are shown here.
{"smilesInput": "Nc1nc2[nH]c(CCCc3ccc(C(=O)N[C@@H](CCC(=O)O)C(=O)O)c(F)c3)cc2c(=O)[nH]1", "measurementKind": "inhibition", "result": "60 to 85%"}
{"smilesInput": "Nc1nc2[nH]c(CCCCc3csc(C(=O)N[C@@H](CCC(=O)O)C(=O)O)c3F)cc2c(=O)[nH]1", "measurementKind": "inhibition", "result": "60 to 85%"}

Now let's try a different one.
Reported inhibition (Proton-coupled folate transporter (Homo sapiens) (UniProt Q96NT5)) for entry Nc1nc2[nH]c(CCCCc3ccc(C(=O)N[C@@H](CCC(=O)O)C(=O)O)c(F)c3)cc2c(=O)[nH]1 is 60 to 85%
